meta.source: ChEMBL document CHEMBL1909046

Listed below: pIC50 values for each entry.
Target: UniProt P0DMS8
Sequence (P0DMS8 whole entry): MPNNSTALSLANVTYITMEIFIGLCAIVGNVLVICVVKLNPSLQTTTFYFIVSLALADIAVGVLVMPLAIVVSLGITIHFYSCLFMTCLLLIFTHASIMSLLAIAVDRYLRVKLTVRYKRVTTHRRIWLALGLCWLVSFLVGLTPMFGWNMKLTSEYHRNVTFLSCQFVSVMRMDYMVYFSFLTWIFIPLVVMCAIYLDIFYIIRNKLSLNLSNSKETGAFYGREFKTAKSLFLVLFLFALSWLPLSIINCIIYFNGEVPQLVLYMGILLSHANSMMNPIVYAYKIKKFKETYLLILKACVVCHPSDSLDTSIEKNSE
Type: cell membranes, CHO-K1, Membrane
Settings: read-out: IC50
pIC50: −log10 of the molar value.

>  <Molecule>
C#C[C@]1(O)CC[C@H]2[C@@H]3CCc4cc(O)ccc4[C@H]3CC[C@@]21C

>  <pIC50>
4.48

$$$$
>  <Molecule>
CCOC(=O)C1=C(C)NC(C)=C(C(=O)OC)C1c1cccc(Cl)c1Cl (configuration not stated)

>  <pIC50>
5.98

$$$$
>  <Molecule>
C#C[C@]1(O)CC[C@H]2[C@@H]3CCC4=Cc5oncc5C[C@]4(C)[C@H]3CC[C@@]21C

>  <pIC50>
4.95

$$$$
>  <Molecule>
CC(C)OC(=O)C(C)(C)Oc1ccc(C(=O)c2ccc(Cl)cc2)cc1 [FENOFIBRATE]

>  <pIC50>
5.24

$$$$
>  <Molecule>
COc1cc(C(=O)NS(=O)(=O)c2ccccc2C)ccc1Cc1cn(C)c2ccc(NC(=O)OC3CCCC3)cc12

>  <pIC50>
5.87

$$$$
>  <Molecule>
CCc1oc2ccccc2c1C(=O)c1cc(Br)c(O)c(Br)c1

>  <pIC50>
5.28

$$$$
>  <Molecule>
OCCN1CCN(CCCN2c3ccccc3Sc3ccc(C(F)(F)F)cc32)CC1

>  <pIC50>
4.92

$$$$

---

Target: D(1A) dopamine receptor (Homo sapiens)
Sequence (P21728 whole entry): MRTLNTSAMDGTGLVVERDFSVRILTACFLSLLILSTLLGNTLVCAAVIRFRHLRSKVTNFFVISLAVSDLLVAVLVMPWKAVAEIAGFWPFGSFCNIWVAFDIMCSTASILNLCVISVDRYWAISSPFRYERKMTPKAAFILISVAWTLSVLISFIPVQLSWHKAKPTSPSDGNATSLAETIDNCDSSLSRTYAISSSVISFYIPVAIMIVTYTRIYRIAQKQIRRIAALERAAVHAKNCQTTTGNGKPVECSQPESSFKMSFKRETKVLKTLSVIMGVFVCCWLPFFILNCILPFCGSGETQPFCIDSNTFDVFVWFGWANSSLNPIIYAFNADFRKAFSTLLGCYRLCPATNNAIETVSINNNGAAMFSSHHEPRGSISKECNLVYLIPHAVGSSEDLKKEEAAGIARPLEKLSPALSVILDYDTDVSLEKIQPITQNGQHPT
Assay: DRUGMATRIX: Dopamine D1 radioligand binding (ligand: [3H] SCH-23390)
Assay type: cell membranes, CHO, Membrane
Settings: cho; Not Active = under 50% inhibition at 10 µM

>  <Compound>
CN(Cc1cnc2nc(N)nc(N)c2n1)c1ccc(C(=O)N[C@@H](CCC(=O)O)C(=O)O)cc1 [METHOTREXATE]

>  <IC50>
Not Active

$$$$
>  <Compound>
Nc1ccc(S(=O)(=O)Nc2ncccn2)cc1 [SULFADIAZINE]

>  <IC50>
Not Active

$$$$
>  <Compound>
C[C@@H]1CC[C@H]2[C@@H](C)C(=O)O[C@@H]3O[C@@]4(C)CC[C@@H]1[C@]32OO4 [ARTEMISININ]

>  <IC50>
Not Active

$$$$
>  <Compound>
CCCCC1C(=O)N(c2ccccc2)N(c2ccccc2)C1=O [PHENYLBUTAZONE]

>  <IC50>
Not Active

$$$$

---

Molecular target: Glycine receptor (Rattus norvegicus, UniProt P22771+P24524+P07727+P20781); note: in other assays of this panel Not Active means under 50% inhibition at 10 µM
Type: cell membranes, Wistar, Spinal cord, Membrane

>  <Compound>
C=C(CC)C(=O)c1ccc(OCC(=O)O)c(Cl)c1Cl

>  <IC50>
Not Active

$$$$
>  <Compound>
O=c1cc(-c2ccccc2)oc2ccc3ccccc3c12

>  <IC50>
Not Active

$$$$
>  <Compound>
N=C(N)N/N=C/c1c(Cl)cccc1Cl

>  <IC50>
Not Active

$$$$
>  <Compound>
O=C(/C=C/c1ccc(O)c(O)c1)OCCc1ccccc1

>  <IC50>
Not Active

$$$$
>  <Compound>
CC(=O)O[C@]1(C(C)=O)CC[C@H]2[C@@H]3C=C(Cl)C4=CC(=O)[C@@H]5C[C@@H]5[C@]4(C)[C@H]3CC[C@@]21C [CYPROTERONE ACETATE]

>  <IC50>
Not Active

$$$$
>  <Compound>
CNC(=C[N+](=O)[O-])NCCSCc1csc(CN(C)C)n1

>  <IC50>
Not Active

$$$$
>  <Compound>
N[C@@H](Cc1ccc(F)cc1)C(=O)O

>  <IC50>
Not Active

$$$$
>  <Compound>
COc1ncnc(NS(=O)(=O)c2ccc(N)cc2)c1OC

>  <IC50>
Not Active

$$$$
>  <Compound>
NC[C@H]1O[C@H](O[C@H]2[C@H](O)[C@@H](O[C@H]3O[C@H](CO)[C@@H](O)[C@H](N)[C@H]3O)[C@H](N)C[C@@H]2N)[C@H](N)C[C@@H]1O

>  <IC50>
Not Active

$$$$
